TARGET SYSTEM: Norepinephrine transporter (Rattus norvegicus)
Sequence (Q9WTR4 whole entry): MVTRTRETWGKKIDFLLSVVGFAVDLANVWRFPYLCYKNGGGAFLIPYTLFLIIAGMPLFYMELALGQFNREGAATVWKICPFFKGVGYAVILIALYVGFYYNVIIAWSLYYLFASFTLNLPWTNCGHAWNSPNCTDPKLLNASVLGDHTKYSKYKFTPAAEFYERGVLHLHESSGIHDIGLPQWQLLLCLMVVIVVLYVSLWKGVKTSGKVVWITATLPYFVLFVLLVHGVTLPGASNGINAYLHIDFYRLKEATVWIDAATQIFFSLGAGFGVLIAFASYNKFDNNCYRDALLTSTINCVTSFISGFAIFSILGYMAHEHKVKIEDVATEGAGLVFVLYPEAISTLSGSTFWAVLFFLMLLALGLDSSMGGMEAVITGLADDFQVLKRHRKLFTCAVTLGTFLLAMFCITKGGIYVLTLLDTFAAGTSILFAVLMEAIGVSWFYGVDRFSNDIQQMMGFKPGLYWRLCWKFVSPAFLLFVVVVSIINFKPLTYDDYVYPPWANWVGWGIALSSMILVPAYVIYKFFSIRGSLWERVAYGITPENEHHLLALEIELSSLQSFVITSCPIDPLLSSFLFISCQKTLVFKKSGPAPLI
pIC50: −log10 of the molar value.
Please mark yes (1) if the recorded pIC50 is equal to or greater than 5, and no (0) if it falls below.

>>> class("CN1C2CCC1C(C(=O)Oc1ccccc1)C(c1ccc(Cl)cc1)C2 (centres undefined)")
"yes (1)"
>>> class("CC(C)OC(=O)C1C2CC[C@H](C[C@@H]1c1ccc(Cl)cc1)N2C (some centres undefined)")
"yes (1)"
>>> class("Cc1noc(C2C3CC[C@H](C[C@@H]2c2ccccc2)N3C)n1 (stereo in doubt; 7)")
"no (0)"
>>> class("CC(C)c1noc(C2C3CC[C@H](C[C@@H]2c2ccc(Cl)cc2)N3C)n1 (some centres undefined)")
"yes (1)"
>>> class("Cc1noc(C2C3CC[C@H](C[C@@H]2c2ccccc2)N3C)n1 (stereo in doubt; 6)")
"no (0)"
>>> class("CN1C2CC[C@@H]1C[C@H](c1ccc(Cl)cc1)C2c1nc(-c2ccc(Br)cc2)no1 (some centres undefined)")
"yes (1)"
>>> class("CN1C2CC[C@@H]1C[C@H](c1ccc(Cl)cc1)C2c1nc(-c2ccc(Cl)cc2)no1 (some centres undefined)")
"yes (1)"
>>> class("Cc1ccc([C@H]2C[C@H]3CCC(C2C(=O)Oc2ccccc2)N3C)cc1 (some centres undefined)")
"yes (1)"

* * *

Below are pIC50 values recorded for Sodium-dependent serotonin transporter (Rattus norvegicus, UniProt P31652).
pIC50: −log10 of the molar value.
READOUT TYPE: pIC50

>>> reading("Cc1noc(C2C3CC[C@H](C[C@@H]2c2ccc(Cl)cc2)N3C)n1 (stereo partly drawn)")
5.59
>>> reading("CN1C2CC[C@@H]1C[C@H](c1ccc(Cl)cc1)C2c1nc(-c2ccc(Cl)cc2)no1 (stereo partly drawn)")
6.39
>>> reading("Cc1ccc([C@H]2C[C@H]3CCC(C2C(=O)Oc2ccccc2)N3C)cc1 (stereo partly drawn)")
4.61
>>> reading("Cc1noc(C2C3CC[C@H](C[C@@H]2c2ccccc2)N3C)n1 (stereo in doubt; 8)")
4.39
>>> reading("Cc1noc(C2C3CC[C@H](C[C@@H]2c2ccccc2)N3C)n1 (stereo in doubt; 5a)")
5.42
>>> reading("CN1C2CC[C@@H]1C[C@H](c1ccc(Cl)cc1)C2c1nc(-c2ccccc2)no1 (stereo partly drawn)")
6.71
>>> reading("Cc1noc(C2C3CC[C@H](C[C@@H]2c2ccccc2)N3C)n1 (stereo in doubt; 7)")
4.53
>>> reading("CC(C)OC(=O)C1C2CC[C@H](C[C@@H]1c1ccc(Cl)cc1)N2C (stereo partly drawn)")
5.85
>>> reading("Cc1ccc([C@H]2C[C@H]3CCC(C2c2nc(-c4ccccc4)no2)N3C)cc1 (stereo partly drawn)")
5.97
>>> reading("Cc1noc(C2C3CC[C@H](C[C@@H]2c2ccccc2)N3C)n1 (stereo in doubt; 6)")
4.48
>>> reading("COc1ccc(-c2noc(C3C4CC[C@H](C[C@@H]3c3ccc(Cl)cc3)N4C)n2)cc1 (stereo partly drawn)")
6.47
>>> reading("CC(C)c1noc(C2C3CC[C@H](C[C@@H]2c2ccc(Cl)cc2)N3C)n1 (stereo partly drawn)")
5.46
>>> reading("CN1C2CC[C@@H]1C[C@H](c1ccc(Cl)cc1)C2c1nc(-c2ccc(Br)cc2)no1 (stereo partly drawn)")
6.97
